ASSAY NAME: Pharmacokinetics of PEA after intravenous administration in male Sprague-Dawley rats
Type: in vivo, Sprague-Dawley rat
CONDITIONS USED: male, Sprague-Dawley, rat, in vivo, iv, 1 mg/kg, Plasma concentration of PEA, Mean
RESULT TYPE: concentration at 0.25 hr (ng/mL)
One number for each entry, in ng/mL.

Qu. Data request, read-out concentration at 0.25 hr, for CCCCCCCCCCCCCCCC(=O)NCCO [PEA, palmitoylethanolamide]
Ans. 48.2

###

ASSAY NAME: in vivo
CONDITIONS USED: male, Sprague-Dawley, rat, plasma, po, 10 mg/kg
RESULT TYPE: Cmax (ng/mL)
One number for each entry, in ng/mL.

Qu. Data request, read-out Cmax, for CCCCCCCCCCCCCCCC(=O)NCCO [PEA, palmitoylethanolamide]
Ans. 5.3

###

ASSAY NAME: in vitro
CONDITIONS USED: male, Sprague-Dawley, rat, 20 min, 1 μM
RESULT TYPE: Measured concentration of analyte PEA, 20 min (µM)
Give bare numbers, in µM.

Worked cases, answers included:
INSERT INTO results (compound, readout_value) VALUES
  ('CCCCCCCCCCCCCCCC(=O)NCCOC(=O)CCC(=O)OC[C@H]1O[C@@](CO)(O[C@H]2O[C@H](CO)[C@@H](O)[C@H](O)[C@H]2O)[C@@H](O)[C@@H]1O [Compound I-7]', 0.087),
  ('CC/C=C\C/C=C\C/C=C\C/C=C\C/C=C\CCCC(=O)OCCNC(=O)CCCCCCCCCCCCCCC [Compound I-5]', 0.015),
  ('CCCCCCCCCCCCCCCC(=O)NCCOC(=O)CCC [Compound I-2]', 0.028),
  ('CCCCCCCCCCCCCCCC(=O)NCCOC(=O)CCC(=O)OCC(O)CO (stereo not shown) [Compound I-9]', 0.017),
  ('CCCCCCCCCCCCCCCC(=O)NCCOC(=O)CCC(=O)OCC(COC(=O)CCCCCCC)OC(=O)CCCCCCC (stereo not shown) [Compound I-3, PEA-Succinate-Glycerol-Di-Caprylic]', 0.018);

For each of the compounds below, state Measured concentration of analyte PEA, 20 min.
1. CCCCC/C=C\C/C=C\CCCCCCCC(=O)OCCNC(=O)CCCCCCCCCCCCCCC [Compound I-6]
2. CCCCCCCCCCCCCCCC(=O)NCCOC(=O)CCC(=O)OCC(COC(=O)CCC)OC(=O)CCC (stereo not shown) [Compound I-11]

Ans.
1: 0.017; 2: 0.031

###

ASSAY NAME: Simulated intestinal fluid (SIF) stability in the presence of various enzymes
Format: in vitro ADME
CONDITIONS USED: SIF + Carboxypeptidase B, 30 min, 1 μM
Method: Studies were carried out in simulated intestinal fluid in the presence of various enzymes. Simulated intestinal fluid was prepared by dissolving 6.8 g of monobasic potassium phosphate in 1.0 L of water. Aliquots of this solution were taken and the pH was adjusted to 6.8. Individual enzymes were then spiked into aliquots for each experiment. A DMSO stock was first prepared for the test article. […]
// assign Fulfilled if % Remaining of Initial (n = 1) falls strictly below 30%, else Not fulfilled (ties count as Not fulfilled)

INSERT INTO results (molecule, label_value) VALUES
  ('CCCCC/C=C\C/C=C\CCCCCCCC(=O)OCC(COC(=O)CCC(=O)OCCNC(=O)CCCCCCCCCCCCCCC)OC(=O)CCCCCCC/C=C\C/C=C\CCCCC (centres unmarked)', 'Not fulfilled'),
  ('CCCCCCCCCCCCCCCC(=O)NCCOC(=O)CCC(=O)OCC(COC(=O)CCC)OC(=O)CCC (centres unmarked)', 'Not fulfilled'),
  ('CCCCC/C=C\C/C=C\CCCCCCCC(=O)OCCNC(=O)CCCCCCCCCCCCCCC', 'Not fulfilled'),
  ('CCCCCCCCCCCCCCCC(=O)NCCOC(=O)CCC(=O)OCC(O)CO (centres unmarked)', 'Fulfilled');

Moving on to the next molecule.
Qu. Does the reported % Remaining of Initial (n = 1) of the following molecule sit strictly below 30%? CCCCCCCCCCCCCCCC(=O)NCCOC(=O)CCC
Ans. Not fulfilled

###

ASSAY NAME: in vitro
CONDITIONS USED: male, CD-1, mouse, s9, 1 h, 1 μM
RESULT TYPE: % Remaining of Initial (n = 1), 60 min (%)
Answers are plain numbers, in %.

INSERT INTO results (molecule, result_units, readout_value) VALUES
  ('CC/C=C\C/C=C\C/C=C\C/C=C\C/C=C\CCCC(=O)OCCNC(=O)CCCCCCCCCCCCCCC [Compound I-5]', '%', 50),
  ('CCCCCCCCCCCCCCCC(=O)NCCOC(=O)CCC(=O)OCC(COC(=O)CCCCCCC)OC(=O)CCCCCCC (stereo not shown) [Compound I-3, PEA-Succinate-Glycerol-Di-Caprylic]', '%', 61);

Next molecule, % Remaining of Initial (n = 1), 60 min to be filled in.
Qu. Data request, read-out % Remaining of Initial (n = 1), 60 min, for CCCCC/C=C\C/C=C\CCCCCCCC(=O)OCCNC(=O)CCCCCCCCCCCCCCC [Compound I-6]
Ans. 75

###

ASSAY NAME: Simulated intestinal fluid (SIF) stability in the presence of various enzymes
Format: in vitro ADME
CONDITIONS USED: SIF + Carboxypeptidase A, 60 min, 1 μM
RESULT TYPE: % Remaining of Initial (n = 1) (%)
One number for each entry, in %.

Worked cases, answers included:
INSERT INTO measurements (compound, result_type, readout_value) VALUES
  ('CCCCC/C=C\C/C=C\CCCCCCCC(=O)OCC(COC(=O)CCC(=O)OCCNC(=O)CCCCCCCCCCCCCCC)OC(=O)CCCCCCC/C=C\C/C=C\CCCCC (stereo not shown)', '% Remaining of Initial (n = 1)', 27),
  ('CCCCCCCCCCCCCCCC(=O)NCCOC(=O)CCC(=O)OCC(COC(=O)CCCCCCC)OC(=O)CCCCCCC (stereo not shown) [Compound I-3, PEA-Succinate-Glycerol-Di-Caprylic]', '% Remaining of Initial (n = 1)', 36),
  ('CCCCCCCCCCCCCCCC(=O)NCCOC(=O)CCC', '% Remaining of Initial (n = 1)', 56);

Next compound, % Remaining of Initial (n = 1) to be filled in.
Qu. Data request, read-out % Remaining of Initial (n = 1), for CCCCCCCCCCCCCCCC(=O)NCCOC(=O)CCC(=O)OCC(COC(=O)CCC)OC(=O)CCC (stereo not shown)
Ans. 42

###

ASSAY NAME: Simulated intestinal fluid (SIF) stability in the presence of various enzymes
Assay type: in vitro ADME
CONDITIONS USED: simulated intestinal fluid with pancreatin, pH 6.8, SIF + Pancreatin, 1 μM; read-out: Half-life
Could you please report measured half-life at 1 μM for the items listed next?

Worked cases, answers included:
INSERT INTO assay_data (compound, readout_value) VALUES
  ('CC/C=C\C/C=C\C/C=C\C/C=C\C/C=C\CCCC(=O)OCCNC(=O)CCCCCCCCCCCCCCC', '5.1 min'),
  ('CCCCC/C=C\C/C=C\CCCCCCCC(=O)OCC(COC(=O)CCC(=O)OCCNC(=O)CCCCCCCCCCCCCCC)OC(=O)CCCCCCC/C=C\C/C=C\CCCCC (centres unmarked)', '< 15 min'),
  ('CCCCC/C=C\C/C=C\CCCCCCCC(=O)OCCNC(=O)CCCCCCCCCCCCCCC', '8.3 min'),
  ('CCCCCCCCCCCCCCCC(=O)NCCOC(=O)CCC(=O)OC[C@H]1O[C@@](CO)(O[C@H]2O[C@H](CO)[C@@H](O)[C@H](O)[C@H]2O)[C@@H](O)[C@@H]1O', '12 min'),
  ('CCCCCCCCCCCCCCCC(=O)NCCOC(=O)CCC', '> 120 min');

For each of the compounds below, state half-life at 1 μM.
1. CCCCCCCCCCCCCCCC(=O)NCCOC(=O)CCC(=O)OCC(COC(=O)CCC)OC(=O)CCC (centres unmarked)
2. CCCCCCCCCCCCCCCC(=O)NCCOC(=O)CCC(=O)OCC(COC(=O)CCCCCCC)OC(=O)CCCCCCC (centres unmarked) [Compound I-3, PEA-Succinate-Glycerol-Di-Caprylic]
3. CCCCCCCCCCCCCCCC(=O)NCCOC(=O)CCC(=O)OCC(O)CO (centres unmarked)

Ans.
["< 1 min", "< 1 min", "17 min"]

###

Could you please report measured half-life at 1 μM for the items listed next?
ASSAY NAME: in vitro
CONDITIONS USED: both, human, microsomes, Half-life
Give bare numbers, in min.

INSERT INTO results (molecule, result_type, readout_value) VALUES
  ('CCCCCCCCCCCCCCCC(=O)NCCOC(=O)CCC', 'half-life at 1 μM', 3.1),
  ('CCCCCCCCCCCCCCCC(=O)NCCOC(=O)CCC(=O)OC[C@H]1O[C@@](CO)(O[C@H]2O[C@H](CO)[C@@H](O)[C@H](O)[C@H]2O)[C@@H](O)[C@@H]1O', 'half-life at 1 μM', 2.3),
  ('CCCCCCCCCCCCCCCC(=O)NCCOC(=O)CCC(=O)OCC(COC(=O)CCC)OC(=O)CCC (stereo not shown)', 'half-life at 1 μM', 2);

Qu. Data request, read-out half-life at 1 μM, for CCCCC/C=C\C/C=C\CCCCCCCC(=O)OCC(COC(=O)CCC(=O)OCCNC(=O)CCCCCCCCCCCCCCC)OC(=O)CCCCCCC/C=C\C/C=C\CCCCC (stereo not shown)
Ans. 47
